# Tested on: Enterococcus sp.
# run-description: In vitro antibacterial evaluation: minimum inhibitory concentration (MIC), broth dilution method
# Assay type: cell-based
# experimental-parameters: broth dilution, inoculum 5×10^5 CFU/mL, 18 hours at 35° C.
MIC Enterococcus faecalis (GC 6189): recorded values
Value expressed in mg/L; do not type the unit.

# molecule, units, MIC Enterococcus faecalis (GC 6189)
data = [
    ("CC(c1ccccc1)C1NC(=O)CNC(=O)C(CO)NC(=O)C(C(O)C2CNC(=N)N2C2OC(CO)C(O)C(O)C2O)NC(=O)C(C(O)C2CNC(=N)N2)NC(=O)C(Cc2ccc(OC3OC(CO)C(OC4OC5COC6(CCCCC6C)OC5C(O)C4O)C(O)C3O)cc2)NC1=O (centres unmarked)", "mg/L", 16),
]

Prompt: What measured MIC Enterococcus faecalis (GC 6189) goes with COc1ccc(Oc2cccc(C3OCC4OC(OC5C(CO)OC(Oc6ccc(CC7NC(=O)C(C(C)c8ccccc8)NC(=O)CNC(=O)C(CO)NC(=O)C(C(O)C8CNC(=N)N8C8OC(CO)C(O)C(O)C8O)NC(=O)C(C(O)C8CNC(=N)N8)NC7=O)cc6)C(O)C5O)C(O)C(O)C4O3)c2)cc1 (centres unmarked) ?
Completion: 2

Prompt: What measured MIC Enterococcus faecalis (GC 6189) goes with CC(c1ccccc1)C1NC(=O)CNC(=O)C(CO)NC(=O)C(C(O)C2CNC(=N)N2C2OC(CO)C(O)C(O)C2O)NC(=O)C(C(O)C2CNC(=N)N2)NC(=O)C(Cc2ccc(OC3OC(CO)C(OC4OC5COC(c6ccc(Oc7ccc(C(C)(C)C)cc7)cc6)OC5C(O)C4O)C(O)C3O)cc2)NC1=O (centres unmarked) ?
Completion: 2

Prompt: What measured MIC Enterococcus faecalis (GC 6189) goes with CC(c1ccccc1)C1NC(=O)CNC(=O)C(CO)NC(=O)C(C(O)C2CNC(=N)N2C2OC(CO)C(O)C(O)C2O)NC(=O)C(C(O)C2CNC(=N)N2)NC(=O)C(Cc2ccc(OC3OC(CO)C(OC4OC5COC(C)(c6ccc(F)cc6)OC5C(O)C4O)C(O)C3O)cc2)NC1=O (centres unmarked) ?
Completion: 4
